This section presents compounds with their documented log10 MIC values.
test system: Staphylococcus aureus S13E; assay: Agar dilution antibacterial test (MIC); format: cell-based
VALUE_KIND: log10 MIC (log10 of the value in µg/mL)

compound=N[C@@H](C(=O)N[C@@H]1C(=O)N2C(C(=O)O)=C(C(F)(F)F)CC[C@H]12)c1cccc(Br)c1 value_kind="log10 MIC" measured_number=0.90
compound=N[C@@H](C(=O)N[C@@H]1C(=O)N2C(C(=O)O)=C(C(F)(F)F)CC[C@H]12)c1cccc(F)c1 value_kind="log10 MIC" measured_number=1.51
compound="NC(C(=O)N[C@@H]1C(=O)N2C(C(=O)O)=C(C(F)(F)F)CC[C@H]12)c1cccc(C(F)(F)F)c1 (stereo partly drawn)" value_kind="log10 MIC" measured_number=1.20
compound=CON=C(C(=O)N[C@@H]1C(=O)N2C(C(=O)O)=C(C(F)(F)F)CC[C@H]12)c1csc(N)n1 value_kind="log10 MIC" measured_number=1.20
compound=Nc1nc(C(=NO)C(=O)N[C@@H]2C(=O)N3C(C(=O)O)=C(C(F)(F)F)CC[C@H]23)cs1 value_kind="log10 MIC" measured_number=0.60
compound=N[C@@H](C(=O)N[C@@H]1C(=O)N2C(C(=O)O)=C(C(F)(F)F)CC[C@H]12)c1ccc(O)cc1 value_kind="log10 MIC" measured_number=1.85
compound=N[C@@H](C(=O)N[C@@H]1C(=O)N2C(C(=O)O)=C(C(F)(F)F)CC[C@H]12)c1ccc(F)cc1 value_kind="log10 MIC" measured_number=1.51
compound=N[C@@H](C(=O)N[C@@H]1C(=O)N2C(C(=O)O)=C(C(F)(F)F)CC[C@H]12)c1ccccc1 value_kind="log10 MIC" measured_number=1.51
compound="CCS(=O)(=O)Nc1cccc(C(N)C(=O)N[C@@H]2C(=O)N3C(C(=O)O)=C(C(F)(F)F)CC[C@H]23)c1 (stereo partly drawn)" value_kind="log10 MIC" measured_number=1.51

###

tested on: Salmonella X514; assay: Agar dilution antibacterial test (MIC); format: cell-based
This section presents compounds with their documented MIC values.
VALUE_KIND: MIC (µg/mL)

compound="CCS(=O)(=O)Nc1cccc(C(N)C(=O)N[C@@H]2C(=O)N3C(C(=O)O)=C(C(F)(F)F)CC[C@H]23)c1 (stereo partly shown) [Compound 6]" test_target="Salmonella X514" result_units=µg/mL measured_number=1
compound="NC(C(=O)N[C@@H]1C(=O)N2C(C(=O)O)=C(C(F)(F)F)CC[C@H]12)c1cccc(C(F)(F)F)c1 (stereo partly shown) [Compound 9]" test_target="Salmonella X514" result_units=µg/mL measured_number=32

###

test system: Staphylococcus aureus X400; assay: Agar dilution antibacterial test (MIC); assay type: cell-based; conditions: read-out: MIC
VALUE_KIND: MIC (µg/mL)

smiles_structure=N[C@@H](C(=O)N[C@@H]1C(=O)N2C(C(=O)O)=C(C(F)(F)F)CC[C@H]12)c1ccc(O)cc1 measured_number=102
smiles_structure=N[C@@H](C(=O)N[C@@H]1C(=O)N2C(C(=O)O)=C(C(F)(F)F)CC[C@H]12)c1cccc(Br)c1 measured_number=16
smiles_structure=N[C@@H](C(=O)N[C@@H]1C(=O)N2C(C(=O)O)=C(C(F)(F)F)CC[C@H]12)c1ccc(F)cc1 measured_number=64
smiles_structure=N[C@@H](C(=O)N[C@@H]1C(=O)N2C(C(=O)O)=C(C(F)(F)F)CC[C@H]12)c1ccccc1 measured_number=64
smiles_structure=N[C@@H](C(=O)N[C@@H]1C(=O)N2C(C(=O)O)=C(C(F)(F)F)CC[C@H]12)c1cccc(F)c1 measured_number=64

###

system: Enterobacter cloacae 265A; assay: Agar dilution antibacterial test (MIC); format: cell-based
This section presents compounds with their documented MIC values.
VALUE_KIND: MIC (µg/mL)

compound="Nc1nc(C(=NO)C(=O)N[C@@H]2C(=O)N3C(C(=O)O)=C(C(F)(F)F)CC[C@H]23)cs1 [Compound 5]" value_kind=MIC measured_number=16
compound="NC(C(=O)N[C@@H]1C(=O)N2C(C(=O)O)=C(C(F)(F)F)CC[C@H]12)c1cccc(C(F)(F)F)c1 (stereo partly shown) [Compound 9]" value_kind=MIC measured_number=128
compound="CON=C(C(=O)N[C@@H]1C(=O)N2C(C(=O)O)=C(C(F)(F)F)CC[C@H]12)c1csc(N)n1 [Compound 4]" value_kind=MIC measured_number=64
compound="CCS(=O)(=O)Nc1cccc(C(N)C(=O)N[C@@H]2C(=O)N3C(C(=O)O)=C(C(F)(F)F)CC[C@H]23)c1 (stereo partly shown) [Compound 6]" value_kind=MIC measured_number=32

###

test system: Enterobacter cloacae EB5; assay: Agar dilution antibacterial test (MIC); type: cell-based; details: read-out: MIC
VALUE_KIND: MIC

molecule="N[C@@H](C(=O)N[C@@H]1C(=O)N2C(C(=O)O)=C(C(F)(F)F)CC[C@H]12)c1cccc(Br)c1 [Compound 7]" value_kind=MIC result="64 µg/mL"
molecule="N[C@@H](C(=O)N[C@@H]1C(=O)N2C(C(=O)O)=C(C(F)(F)F)CC[C@H]12)c1ccc(F)cc1 [Compound 3]" value_kind=MIC result="8 µg/mL"
molecule="N[C@@H](C(=O)N[C@@H]1C(=O)N2C(C(=O)O)=C(C(F)(F)F)CC[C@H]12)c1cccc(F)c1 [Compound 8]" value_kind=MIC result="16 µg/mL"
molecule="N[C@@H](C(=O)N[C@@H]1C(=O)N2C(C(=O)O)=C(C(F)(F)F)CC[C@H]12)c1ccccc1 [Compound 1]" value_kind=MIC result="8 µg/mL"
molecule="N[C@@H](C(=O)N[C@@H]1C(=O)N2C(C(=O)O)=C(C(F)(F)F)CC[C@H]12)c1ccc(O)cc1 [Compound 2]" value_kind=MIC result="4.3 µg/mL"

###

This section presents compounds with their documented MIC values.
Test system: Staphylococcus epidermidis EPI270
Test: Agar dilution antibacterial test (MIC)
Format: cell-based
Conditions: read-out: MIC
Procedure: Fresh overnight cultures of test bacteria were diluted to approximately 1x(10)4 cells/microliter and applied in one microliter volumes to the surfaces of the agar plates. The innoculated plates were incubated overnight at 35° C. in ambient air. Minimum inhibitory concentration (mic) endpoints were recorded as the lowest antibiotic concentrations in micrograms per milliliter that inhibited the development of visible growth on the plates. […]
VALUE_KIND: MIC (µg/mL)

compound="N[C@@H](C(=O)N[C@@H]1C(=O)N2C(C(=O)O)=C(C(F)(F)F)CC[C@H]12)c1cccc(F)c1 [Compound 8]" test_target="Staphylococcus epidermidis EPI270" result_units=µg/mL measured_number=4
compound="N[C@@H](C(=O)N[C@@H]1C(=O)N2C(C(=O)O)=C(C(F)(F)F)CC[C@H]12)c1cccc(Br)c1 [Compound 7]" test_target="Staphylococcus epidermidis EPI270" result_units=µg/mL measured_number=1
compound="N[C@@H](C(=O)N[C@@H]1C(=O)N2C(C(=O)O)=C(C(F)(F)F)CC[C@H]12)c1ccc(F)cc1 [Compound 3]" test_target="Staphylococcus epidermidis EPI270" result_units=µg/mL measured_number=4
compound="N[C@@H](C(=O)N[C@@H]1C(=O)N2C(C(=O)O)=C(C(F)(F)F)CC[C@H]12)c1ccc(O)cc1 [Compound 2]" test_target="Staphylococcus epidermidis EPI270" result_units=µg/mL measured_number=4.4
compound="N[C@@H](C(=O)N[C@@H]1C(=O)N2C(C(=O)O)=C(C(F)(F)F)CC[C@H]12)c1ccccc1 [Compound 1]" test_target="Staphylococcus epidermidis EPI270" result_units=µg/mL measured_number=4
